Data provenance: patent US20250084091A1

SYSTEM TESTED: SARS-CoV-2 main protease (Mpro) (Severe acute respiratory syndrome coronavirus 2, UniProt P0DTD1)
PROTOCOL NOTES: biochemical
COND: Table 2; read-out: Enzyme IC50
pIC50: −log10 of the molar value.
PARAMETER: pIC50

{"MOLECULE": "O=C(c1cc(Br)cnc1Cl)N1CCN(C(c2ccccc2)c2ccccc2)CC1", "PARAMETER": "pIC50", "RECORDED VALUE": "< 5.00"}
{"MOLECULE": "O=C1Nc2ccc(F)cc2C1CC(=O)N1CCN(C(c2ccccc2)c2ccccc2)CC1 (stereo not shown)", "PARAMETER": "pIC50", "RECORDED VALUE": "< 4.10"}
{"MOLECULE": "Cc1cc(C(=O)N2CCC(C(O)(c3ccccc3)c3ccccc3)CC2)c[n+]([O-])c1", "PARAMETER": "pIC50", "RECORDED VALUE": "< 5.00"}
{"MOLECULE": "CC(=O)Nc1ncc(C(=O)N2CCN(C3c4ccccc4CS(=O)(=O)c4ccccc43)CC2)cc1C (stereo not shown)", "PARAMETER": "pIC50", "RECORDED VALUE": "< 4.10"}
